target: α-glucosidase (Saccharomyces cerevisiae, UniProt P53341); assay: α-glucosidase inhibition assay (pNPG, absorbance at 405 nm); format: biochemical; conditions: 0.1 mg/mL and 0.5 mg/mL, Figure 1
Sequence (P53341 whole entry): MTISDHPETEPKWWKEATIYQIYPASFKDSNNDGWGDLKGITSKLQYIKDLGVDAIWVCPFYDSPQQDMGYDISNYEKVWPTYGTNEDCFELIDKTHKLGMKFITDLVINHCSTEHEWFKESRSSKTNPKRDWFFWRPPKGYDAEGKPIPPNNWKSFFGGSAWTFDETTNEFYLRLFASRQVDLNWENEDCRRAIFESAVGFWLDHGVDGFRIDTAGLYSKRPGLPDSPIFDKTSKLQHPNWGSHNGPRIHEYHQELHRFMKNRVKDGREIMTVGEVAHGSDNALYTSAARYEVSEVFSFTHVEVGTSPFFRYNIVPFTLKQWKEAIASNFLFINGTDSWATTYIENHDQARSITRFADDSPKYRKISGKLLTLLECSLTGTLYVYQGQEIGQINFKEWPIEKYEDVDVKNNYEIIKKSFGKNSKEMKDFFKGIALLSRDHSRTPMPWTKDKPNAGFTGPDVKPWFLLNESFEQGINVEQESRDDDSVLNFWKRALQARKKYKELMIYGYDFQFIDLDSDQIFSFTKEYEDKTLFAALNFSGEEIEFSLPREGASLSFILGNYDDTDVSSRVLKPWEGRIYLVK
RECORDED_ENDPOINT: α-glucosidase inhibitory activity of identified compounds (in words)

Tell us which α-glucosidase inhibitory activity of identified compounds (in words) value is on record for O=C(O)c1cc(O)c(O)c(O)c1 [gallic acid, Gallic acid]
strong activity

Tell us which α-glucosidase inhibitory activity of identified compounds (in words) value is on record for O=c1c(O)c(-c2ccc(O)cc2)oc2cc(O)cc(O)c12 [kaempferol, Kaempferol]
strong activity
